Conditions: buffer; pH 7.4; 200.0 µM
Outcome label depends on solubility kinetic relative to 10 µg/mL: at/above gives 1 (yes), below gives 0 (no).

Illustrative cases are given below, each with its answer.
{"molecule": "CC1CCN(C(=O)COC(=O)c2nn(C)c(=O)c3ccccc23)CC1", "assignedLabel": "1 (yes)"}
{"molecule": "COc1cc(OC)cc(C(=O)Nc2ccc(CN3CCCCC3)cc2)c1", "assignedLabel": "1 (yes)"}
{"molecule": "C=CCn1c(SCC(N)=O)nnc1-c1cnccn1", "assignedLabel": "1 (yes)"}

Could you tell me if the measured solubility kinetic of `Cc1ccc(NC(=O)Cc2ccc(Cl)cc2)nc1` reaches 10 µg/mL or more?
1 (yes)

Can Cc1c(Cl)cccc1NC(=O)C1CC2CCC1C2 (stereo not given) be said to have solubility kinetic at or above 10 µg/mL?
0 (no)

# check: solubility kinetic of `COc1cc(/C=C(\C#N)c2nc3ccccc3[nH]2)ccc1O` is greater than or equal to 10 µg/mL
0 (no)

Is solubility kinetic at least 10 µg/mL? Consider `CC(=O)c1cccc(Oc2ncccn2)c1`
1 (yes)

Given `Cc1cc(C)cc(NC(=O)COC(=O)c2cc(C)oc2C)c1` , state whether its solubility kinetic is at least 10 µg/mL.
0 (no)

Is solubility kinetic for `Cc1ccc(C)c(NC(=S)N(C)CCO)c1` at or above 10 µg/mL?
1 (yes)

Form field: solubility kinetic at least 10 µg/mL? Entry: `COC(=O)c1c(NC(C)=O)sc(C)c1C`
1 (yes)

Is solubility kinetic for `CCOC(=O)/C=C/C(=O)OCC(=O)Nc1cccc(Br)c1` at or above 10 µg/mL?
1 (yes)

Say whether `CCN(C(=O)CN1C(=O)c2ccc([N+](=O)[O-])cc2C1=O)C1CCCCC1` shows solubility kinetic of 10 µg/mL or more.
1 (yes)

Has `O=C(NCCO)C(=O)Nc1cc2c3c(c1)CC(=O)N3CCC2` a recorded solubility kinetic greater than or equal to 10 µg/mL?
1 (yes)

Assess whether reported solubility kinetic for `O=[N+]([O-])c1ccc(Cl)c(CN2CCN(c3ncccn3)CC2)c1` sits at 10 µg/mL or higher.
1 (yes)

# bool: solubility kinetic of `COc1ccc(CCNCc2cccn2C)cc1.Cl` >= 10 µg/mL
1 (yes)

----------
Settings: buffer; pH 7.4; 200.0 µM
experimentalReadout: log10 of solubility kinetic (log10 of the value in µg/mL)
Transform log10 | Measure solubility kinetic | Unit µg/mL

Example entries and their recorded answers appear below.
{"compound": "COc1ccc(/C=C/C(=O)O/N=C(\\N)c2ccccn2)cc1OC", "log10 of solubility kinetic": 0.89}
{"compound": "Oc1ccc(F)c2cccnc12", "log10 of solubility kinetic": 0.70}
{"compound": "CSc1ncc(C(=O)Nc2cccc(Cl)c2C)c(C)n1", "log10 of solubility kinetic": 1.27}

Parameters: items (list). Returns: log10 of solubility kinetic for each item.
1. O=C(CNc1ccccc1)Nc1cccc2ccccc12
2. COCCCNc1nc(N)c([N+](=O)[O-])c(Nc2ccccc2OC)n1

0.53
0.00

Dear reader, for each entry below, please note its log10 of solubility kinetic.
1. O=C(CN1CCCCCCC1)NC(=O)NC1CCCCC1
2. O=c1[nH]c2ccccc2nc1-c1ccccc1
3. CS(=O)(=O)Cc1ccc(C(=O)NC2CCCc3ccccc32)cc1 (configuration not stated)

1.48
0.59
0.98

----------
Details: buffer; pH 7.4; 200.0 µM
Assign log10 solubility kinetic to each entry below.
Values below are the log10 of the recorded solubility kinetic, with µg/mL as the unit.

{"molecule": "CCC1CCCCN1C(=O)CSc1nc(N)cc(=O)[nH]1 (centres undefined)", "log10 solubility kinetic": 1.63}

Could I get log10 solubility kinetic for every one of these entries?
1. CCc1ccccc1NC(=O)Nc1ccon1
2. Cc1cc(C)cc(NC(=O)CCN2C(=O)c3ccccc3C2=O)c1
3. O=C(O)CCC(=O)Nc1ccc(Br)cc1C(=O)c1ccc(Cl)cc1
4. COc1cc(C(=O)Nc2ccc(Nc3ccccc3)cc2)cc(OC)c1OC
5. CCOc1ccccc1-c1noc(CCC(=O)NC2CCCCC2)n1
6. Cn1c(=O)c2c([nH]c(=S)n2CCCc2ccccc2)n(C)c1=O
7. Cc1ccccc1C(=O)NC1CCN(C(=O)NC2CCCCC2)CC1
8. CCC(C)n1c(O)c(C=NCCc2ccccc2)c(=O)[nH]c1=S (centres undefined)

1. 1.46
2. 0.40
3. 1.65
4. 0.64
5. 1.66
6. 1.55
7. 0.81
8. 0.71

----------
So I've got a bunch of compounds here, and I need their solubility kinetic values.
Details: buffer; pH 7.4; 200.0 µM
Answers are plain numbers, in µg/mL.

{"compound": "COC(=O)c1c(NC(C)=O)csc1C", "valueUnit": "µg/mL", "solubility kinetic": 29.2}
{"compound": "CC1CC2(CCCC2)Nc2ccc(F)cc21.Cl (configuration not stated)", "valueUnit": "µg/mL", "solubility kinetic": 0.7}
{"compound": "CCc1ccc(Oc2ncnc(N)c2[N+](=O)[O-])cc1", "valueUnit": "µg/mL", "solubility kinetic": 5}

I need solubility kinetic for every entry listed below, if you could help.
1. O=C1CC(NCc2ccc(F)cc2)C(=O)N1c1ccccc1 (configuration not stated)
2. O=C(Cn1c(=O)n(CC2CS2)c2ccccc21)N1CCCCCC1 (configuration not stated)
3. Cc1ccc(Cl)cc1NC(=O)COC(=O)CSc1ccccc1

[43.6, 44.3, 7.2]

----------
Conditions: buffer; pH 7.4; 200.0 µM
Decide using solubility kinetic: a value greater than or equal to 4 µg/mL is yes (1), a smaller one is no (0).

Solved cases below.
{"compound": "O=C(COc1ccc([N+](=O)[O-])cc1Cl)Nc1ccc2[nH]c(=O)[nH]c2c1", "assignedLabel": "yes (1)"}
{"compound": "Cc1cc(Nc2ccc([N+](=O)[O-])cc2)c2ccccc2n1", "assignedLabel": "no (0)"}
{"compound": "CCOC(=O)Cc1csc(NC(=O)Cc2ccccc2)n1", "assignedLabel": "yes (1)"}
{"compound": "O=C(NCC1CCCO1)c1ccc(NC(=O)c2cccc(Cl)c2)cc1 (stereo not given)", "assignedLabel": "no (0)"}

Decide: solubility kinetic of O=C(O)CCSC1CC(=O)N(c2ccccc2)C1=O (stereo not given) >= 4 µg/mL?
yes (1)

Item `O=[N+]([O-])c1ccc(SCc2ccco2)cc1N1CCOCC1` with solubility kinetic of 4 µg/mL or above?
yes (1)

Answer whether solubility kinetic of `CCOc1cc(/C=N/NC(=O)C2CCCC2)ccc1O` is greater than or equal to 4 µg/mL.
yes (1)

Reported solubility kinetic reaches at least 4 µg/mL for `C/C(=N\NC(=O)c1ccncc1)c1cccnc1` ?
yes (1)

hey, is solubility kinetic for this one >= 4 µg/mL? `Cc1ccc2cc(NC(=O)c3cccc(F)c3)ccc2n1`
yes (1)

Reported solubility kinetic at or above 4 µg/mL? `Cc1cc(C(=O)Nc2ccccc2[N+](=O)[O-])cs1`
no (0)

Decide: solubility kinetic of `CCCCNc1nc2cccnc2s1` >= 4 µg/mL?
yes (1)

Is solubility kinetic at least 4 µg/mL? Consider COc1ccc(N2C(=O)c3ccccc3C2O)cc1 (stereo not given)
yes (1)

I'd appreciate it if you could say whether `Cc1cc(C(F)(F)F)nc(SCC(=O)NC2CCCCC2)n1` has solubility kinetic at least equal to 4 µg/mL.
yes (1)

Determine whether this compound has solubility kinetic no lower than 4 µg/mL: `Cc1cc2c(cc1C)N(Cc1ccc(Cl)cc1)C1=NCCCN12`
yes (1)

Please indicate if the recorded solubility kinetic for `CS(=O)(=O)Nc1ccc2c(c1)OCC(=O)N2Cc1ccccc1` meets or exceeds 4 µg/mL.
yes (1)

----------
Conditions: buffer; pH 7.4; 200.0 µM
experimentalReadout: solubility kinetic

{"molecule": "NS(=O)(=O)c1cccc(NC(=O)COC(=O)CCC(=O)c2cccs2)c1", "solubility kinetic": "> 59.5 µg/mL"}
{"molecule": "CCOCCCNc1c(CC)c(C)c(C#N)c2nc3ccccc3n12", "solubility kinetic": "6.5 µg/mL"}
{"molecule": "CCc1cc2c(Nc3ccccc3O)nc(C)nc2s1.Cl", "solubility kinetic": "< 0.2 µg/mL"}
{"molecule": "COc1ccc(S(=O)(=O)n2c([N+](=O)[O-])cnc2C)cc1OC", "solubility kinetic": "> 49.1 µg/mL"}

Please give solubility kinetic, item by item, for the list that follows.
1. O=C(Cc1ccc([N+](=O)[O-])cc1)Nc1ccc2c(c1)CCC2
2. CC(Nc1ccc2c(c1)OCCO2)C(=O)Nc1ccc2c(c1)OCO2 (stereo unspecified)
3. Cn1c(=O)n(C)c2cc(NS(=O)(=O)c3ccccc3)ccc21
4. CCc1ccccc1NC(=O)N1C[C@H]2C[C@@H](C1)c1cccc(=O)n1C2
5. CCCC(C)NC(=O)C1c2ccccc2Oc2ccccc21 (stereo unspecified)
6. Cc1cc(C)n2nc(SCC(=O)N3CCCCC3C)nc2n1 (stereo unspecified)

["0.6 µg/mL", "> 51.4 µg/mL", "35.5 µg/mL", "> 50.6 µg/mL", "1.2 µg/mL", "> 47.9 µg/mL"]

Query (molecule): `Clc1ccc(-c2nc3ccccn3c2CN2CCSCC2)cc1` ; field requested: solubility kinetic
1.9 µg/mL
